- System: CA46;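 note: growth inhibition of human CA46 cells, read out by a cell viability assay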
- Measurement Notes: cells
- Type: functional, cell-based
- Stated Conditions: Homo sapiens
- Description: SANGER: Inhibition of human CA46 cell growth in a cell viability assay.
Assay Endpoint: IC50

Consider the worked cases shown below.
Molecule	Assay Endpoint	Result
CN(c1ncccc1CNc1nc(Nc2ccc3c(c2)CC(=O)N3)ncc1C(F)(F)F)S(C)(=O)=O	IC50	> 2.56 µM
Cc1cc([C@@H](C)Nc2ccccc2C(=O)O)c2nc(N3CCOCC3)cc(=O)n2c1	IC50	> 5.12 µM

Sure, the documented IC50 for COc1cc([C@@H]2c3cc4c(cc3[C@@H](O[C@@H]3O[C@@H]5CO[C@@H](C)O[C@H]5[C@H](O)[C@H]3O)[C@H]3COC(=O)[C@H]23)OCO4)cc(OC)c1O [ETOPOSIDE] is > 16 µM

====

- Test system: 8505C
- Measurement Notes: cells
- Assay type: functional, cell-based, Homo sapiens
- Stated Conditions: Homo sapiens, 8505C
- Description: SANGER: Inhibition of human 8505C cell growth in a cell viability assay.
pIC50: −log10 of the molar value.
Assay Endpoint: pIC50

Consider the worked cases shown below.
> print(dat)
                                   compound  assay.endpoint  result
1   O=C1N=C(NCc2cccs2)S/C1=C\c1ccc2ncccc2c1           pIC50  < 5.30
2  C=CCc1cccc(/C=N/NC(=O)CN2CCN(Cc3ccccc3)CC2)c1O [PAC-1]           pIC50  < 5.59
3  O=c1cc(-c2cccc3c2Sc2ccccc2S3)oc(N2CCOCC2)c1 [KU-55933]           pIC50  < 5.00
4  CN(C)C/C=C/C(=O)Nc1cc2c(Nc3ccc(F)c(Cl)c3)ncnc2cc1O[C@H]1CCOC1 [AFATINIB]           pIC50  < 6.30

Sure, the documented pIC50 for Nc1ccn([C@@H]2O[C@H](CO)[C@@H](O)[C@@H]2O)c(=O)n1 [CYTARABINE] is < 5.70

====

- Test system: SAS;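 note: growth inhibition of SAS cells, read out with a cell viability assay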
- Measurement Notes: cells
- Format: functional, cell-based, Homo sapiens
- Stated Conditions: Homo sapiens, SAS
- Description: SANGER: Inhibition of human SAS cell growth in a cell viability assay.
Assay Endpoint: IC50

Consider the worked cases shown below.
> print(dat)
                               smiles.input     result
1  C[C@]1(O)C[C@@H](c2nc(-c3ccc4ccc(-c5ccccc5)nc4c3)c3c(N)nccn32)C1  > 2.56 µM
2  COc1ccc(-c2ccc3c(N4CCOC[C@@H]4C)nc(N4CCOC[C@@H]4C)nc3n2)cc1CO     > 2 µM
3  COc1ccc(C2=N[C@@H](c3ccc(Cl)cc3)[C@@H](c3ccc(Cl)cc3)N2C(=O)N2CCNC(=O)C2)c(OC(C)C)c1     > 8 µM

Sure, the documented IC50 for C=CCc1cccc(/C=N/NC(=O)CN2CCN(Cc3ccccc3)CC2)c1O is > 2.56 µM

Sure, the documented IC50 for O=C(c1cc(Cc2n[nH]c(=O)c3ccccc23)ccc1F)N1CCN(C(=O)C2CC2)CC1 is > 5 µM

====

- System: Ca9-22
- Measurement Notes: cells
- Format: functional, cell-based, Homo sapiens
- Stated Conditions: Homo sapiens, Ca9-22
- Description: SANGER: Inhibition of human Ca9-22 cell growth in a cell viability assay.
Assay Endpoint: IC50

Consider the worked cases shown below.
> print(dat)
                               smiles.input  result
1  C=CCNC1=C2C[C@@H](C)C[C@H](OC)[C@H](O)[C@@H](C)/C=C(\C)[C@H](OC(N)=O)[C@@H](OC)/C=C\C=C(/C)C(=O)NC(=CC1=O)C2=O  > 1 µM
2  Cc1ccc(Nc2nccc(N(C)c3ccc4c(C)n(C)nc4c3)n2)cc1S(N)(=O)=O  > 8 µM
3  O=C(c1cc(Cc2n[nH]c(=O)c3ccccc23)ccc1F)N1CCN(C(=O)C2CC2)CC1  > 5 µM

Please turn your attention to the following entry.
Sure, the documented IC50 for CN(c1ncccc1CNc1nc(Nc2ccc3c(c2)CC(=O)N3)ncc1C(F)(F)F)S(C)(=O)=O is > 2.56 µM

====

- System: Daoy;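 note: daoy cell growth inhibition, read out as cell viability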
- Measurement Notes: cells
- Format: functional, cell-based, Homo sapiens
- Stated Conditions: Homo sapiens, Daoy
- Description: SANGER: Inhibition of human Daoy cell growth in a cell viability assay.
Recorded IC50, one value per entry.

Consider the worked cases shown below.
> print(dat)
                                   compound  tested.system  assay.endpoint      result
1  O=c1cc(-c2cccc3c2Sc2ccccc2S3)oc(N2CCOCC2)c1 [KU-55933]           Daoy            IC50  > 10000 nM
2  CN(Cc1cnc2nc(N)nc(N)c2n1)c1ccc(C(=O)N[C@@H](CCC(=O)O)C(=O)O)cc1 [METHOTREXATE]           Daoy            IC50    > 200 nM

Please turn your attention to the following entry.
Sure, the documented IC50 for CN(c1ncccc1CNc1nc(Nc2ccc3c(c2)CC(=O)N3)ncc1C(F)(F)F)S(C)(=O)=O [PF-00562271] is > 2560 nM

====

Recorded IC50, one value per entry.
- Test system: SW 962
- Measurement Notes: cells
- Type: functional, cell-based, Homo sapiens
- Stated Conditions: Homo sapiens, SW 962
- Description: SANGER: Inhibition of human SW962 cell growth in a cell viability assay.

Consider the worked cases shown below.
Compound	Tested System	IC50
O=C(c1cc(Cc2n[nH]c(=O)c3ccccc23)ccc1F)N1CCN(C(=O)C2CC2)CC1	SW 962	> 5000 nM
CN(Cc1cnc2nc(N)nc(N)c2n1)c1ccc(C(=O)N[C@@H](CCC(=O)O)C(=O)O)cc1 [METHOTREXATE]	SW 962	> 200 nM

Please turn your attention to the following entry.
Sure, the documented IC50 for CO[C@H]1C[C@@H]2CC[C@@H](C)[C@@](O)(O2)C(=O)C(=O)N2CCCC[C@H]2C(=O)O[C@H]([C@H](C)C[C@@H]2CC[C@@H](O)[C@H](OC)C2)CC(=O)[C@H](C)/C=C(\C)[C@@H](O)[C@@H](OC)C(=O)[C@H](C)C[C@H](C)/C=C/C=C/C=C/1C is > 100 nM

====

- Tested on: SW1783;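 note: cell growth inhibition measured with a viability assay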
- Measurement Notes: cells
- Assay type: functional, cell-based
- Stated Conditions: Homo sapiens
- Description: SANGER: Inhibition of human SW1783 cell growth in a cell viability assay.
Assay Endpoint: IC50

Consider the worked cases shown below.
> print(dat)
                                   molecule  tested.system   result
1  CC(=O)O[C@@H]1[C@@H](OC(C)=O)[C@@H](O)[C@H](Oc2c(-c3ccc(O)cc3)oc3cc(O)cc(O)c3c2=O)O[C@H]1C         SW1783  > 10 µM
2  COc1cc(F)c(F)c(Nc2ccc(I)cc2F)c1NS(=O)(=O)C1(CC(O)CO)CC1 (stereo not drawn)         SW1783   > 5 µM

Please turn your attention to the following entry.
Sure, the documented IC50 for Cc1ccc(Nc2nccc(N(C)c3ccc4c(C)n(C)nc4c3)n2)cc1S(N)(=O)=O is > 8 µM

====

Recorded IC50, one value per entry.
- Test system: SCC-25;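 note: growth inhibition of SCC-25 cells, measured with a cell viability assay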
- Measurement Notes: cells
- Assay type: functional, cell-based, Homo sapiens
- Stated Conditions: Homo sapiens, SCC-25
- Description: SANGER: Inhibition of human SCC-25 cell growth in a cell viability assay.

Consider the worked cases shown below.
> print(dat)
                                   compound  assay.endpoint      result
1  O=c1cc(-c2cccc3c2Sc2ccccc2S3)oc(N2CCOCC2)c1 [KU-55933]            IC50  > 10000 nM
2  C[C@]1(O)C[C@@H](c2nc(-c3ccc4ccc(-c5ccccc5)nc4c3)c3c(N)nccn32)C1 [LINSITINIB]            IC50   > 2560 nM

Sure, the documented IC50 for Cc1cnc(-c2cnc(NCCNc3ccc(C#N)cn3)nc2-c2ccc(Cl)cc2Cl)[nH]1 [LADUVIGLUSIB] is > 2560 nM

====

Recorded IC50, one value per entry.
- System: HLE
- Measurement Notes: cells
- Type: functional, cell-based, Homo sapiens
- Stated Conditions: Homo sapiens, HLE
- Description: SANGER: Inhibition of human HLE cell growth in a cell viability assay.

> print(dat)
                               smiles.input     result
1  C[C@]1(O)C[C@@H](c2nc(-c3ccc4ccc(-c5ccccc5)nc4c3)c3c(N)nccn32)C1  > 2.56 µM
2  O=C(c1cc(Cc2n[nH]c(=O)c3ccccc23)ccc1F)N1CCN(C(=O)C2CC2)CC1     > 5 µM
3  C=CCc1cccc(/C=N/NC(=O)CN2CCN(Cc3ccccc3)CC2)c1O  > 2.56 µM
4  CCOc1nc(NC(=O)Cc2cc(OC)ccc2OC)cc(N)c1C#N    > 10 µM

Please turn your attention to the following entry.
COc1ccc(C2=N[C@@H](c3ccc(Cl)cc3)[C@@H](c3ccc(Cl)cc3)N2C(=O)N2CCNC(=O)C2)c(OC(C)C)c1 on HLE gives IC50 = > 8 µM

====

- Tested on: MEL-JUSO
- Measurement Notes: cells
- Assay type: functional, cell-based, Homo sapiens
- Stated Conditions: Homo sapiens, MEL-JUSO
- Description: SANGER: Inhibition of human MEL-JUSO cell growth in a cell viability assay.
Assay Endpoint: IC50

Consider the worked cases shown below.
> print(dat)
                                   compound  assay.endpoint     result
1  Cc1cnc(-c2cnc(NCCNc3ccc(C#N)cn3)nc2-c2ccc(Cl)cc2Cl)[nH]1 [LADUVIGLUSIB]            IC50  > 2.56 µM
2  Cc1ccc(Nc2nccc(N(C)c3ccc4c(C)n(C)nc4c3)n2)cc1S(N)(=O)=O [PAZOPANIB]            IC50     > 8 µM
3  O=C(c1cc(Cc2n[nH]c(=O)c3ccccc23)ccc1F)N1CCN(C(=O)C2CC2)CC1 [OLAPARIB]            IC50     > 5 µM

Sure, the documented IC50 for CCOc1nc(NC(=O)Cc2cc(OC)ccc2OC)cc(N)c1C#N is > 10 µM

The reported measurements were obtained from ChEMBL document CHEMBL1201861.
